- assayed-system: UniProt Q95PM0
- Sequence (Q95PM0 1-450): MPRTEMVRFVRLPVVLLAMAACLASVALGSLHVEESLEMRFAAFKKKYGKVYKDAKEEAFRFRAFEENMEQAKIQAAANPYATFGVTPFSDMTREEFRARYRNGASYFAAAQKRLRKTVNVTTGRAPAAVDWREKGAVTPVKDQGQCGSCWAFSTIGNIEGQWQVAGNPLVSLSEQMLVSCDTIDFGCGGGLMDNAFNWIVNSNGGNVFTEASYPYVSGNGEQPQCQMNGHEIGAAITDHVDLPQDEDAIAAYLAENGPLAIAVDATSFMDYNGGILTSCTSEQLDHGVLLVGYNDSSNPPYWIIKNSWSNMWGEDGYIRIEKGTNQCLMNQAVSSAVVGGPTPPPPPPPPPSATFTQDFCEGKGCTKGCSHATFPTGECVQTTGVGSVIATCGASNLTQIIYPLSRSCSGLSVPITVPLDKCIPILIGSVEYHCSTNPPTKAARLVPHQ
- assay-comment: Inhibition of recombinant Trypanosoma brucei rhodesiense MVAT4 rhodesain expressed in Pichia pastoris at 100 uM using Z-FR-AMC as substrate by fluorometry relative to control
endpoint-name: inhibition (%)
Express your answer in %, writing the number without its unit.

{"columns": ["smiles-input", "endpoint-name", "quantity-unit", "reported-result"],
 "data": [
  ["Oc1cccc(Nc2nc(NCc3ccccc3)c3ccccc3n2)c1", "inhibition", "%", 98],
  ["c1ccc(CNc2ccnc(Nc3ccccc3)n2)cc1", "inhibition", "%", 6],
  ["Fc1cccc(Nc2nc(Nc3ccccc3)nc3ccccc23)c1", "inhibition", "%", 17]
]}

Task item: Which measured inhibition value corresponds to OCCCNc1nc(NCCN2CCOCC2)c2ccccc2n1 ?
Reply: 22

Task item: Which measured inhibition value corresponds to c1ccc(CNc2nc(Nc3ccccn3)nc3ccccc23)cc1 ?
Reply: 10

Task item: Which measured inhibition value corresponds to Clc1ccc(Nc2nccc(NCc3ccccc3)n2)cc1 ?
Reply: 10

Task item: Which measured inhibition value corresponds to Clc1ccc(Nc2nc(NCCN3CCOCC3)c3ccccc3n2)cc1 ?
Reply: 48

Task item: Which measured inhibition value corresponds to OCCCNc1nc(Nc2cccc(F)c2)c2ccccc2n1 ?
Reply: 56

Task item: Which measured inhibition value corresponds to c1ccc(CNc2nc(Nc3ccccc3)nc3ccccc23)cc1 ?
Reply: 77

Task item: Which measured inhibition value corresponds to Oc1ccc(Nc2nc(NCc3ccccc3)c3ccccc3n2)cc1 ?
Reply: 95

Task item: Which measured inhibition value corresponds to OCCCNc1nc(NCc2ccccc2)c2ccccc2n1 ?
Reply: 47

Task item: Which measured inhibition value corresponds to c1ccc(CNc2nc(Nc3nccs3)nc3ccccc23)cc1 ?
Reply: 100

Origin of the recorded values: ChEMBL document CHEMBL4831522
